The origin of these recorded values is patent US9120749B2.

# Test system: HT-1197 cells
# assay remarks: Cell-based assay: anti-proliferative activity, Cell Counting Kit-8, 72 hours (HT-1197, negative control without MELK expression)
# study conditions: Homo sapiens, HT1197, 72 h, HT1197 cells (negative control, no MELK expression), 72 hours
attribute measured: IC50 (µM)
Write the value in µM as a bare number.

Lab entry: HT-1197 cells assay, compound COc1cc(-c2ccc3ncc(C(C)=O)c(N[C@H]4CC[C@H](CN5CCCC5)CC4)c3c2)cc(Cl)c1O [Example 734] , IC50 = 6.4

Lab entry: HT-1197 cells assay, compound CCC(=O)c1cnc2ccc(-c3cc(F)c(O)c(Cl)c3)cc2c1N[C@H]1CC[C@H](CN2CCCC2)CC1 [Example 846] , IC50 = 0.71

Lab entry: HT-1197 cells assay, compound CC(=O)c1cnc2ccc(-c3cc(F)c(O)c(Cl)c3)cc2c1Nc1ccc(NCCN(C)C)nc1 [Example 762] , IC50 = 5.2

Lab entry: HT-1197 cells assay, compound O=C(c1cnc2ccc(-c3cc(Cl)c(O)c(Cl)c3)cc2c1N[C@H]1CC[C@H](CNCCF)CC1)C1CC1 [Example 700] , IC50 = 2.2

====

For each record, write down the corresponding IC50.
# Test system: T47D cells
# assay remarks: Cell-based assay: anti-proliferative activity, Cell Counting Kit-8, 72 hours (T47D)
# study conditions: Homo sapiens, T47D, 72 h
Where a name gives a salt, the structure may show the parent alone.
Write the value in µM as a bare number.

Lab entry: T47D cells assay, compound COc1cc(-c2ccc3ncc(C(=O)C(C)C)c(Nc4ccc(N5CCNCC5)nc4)c3c2)cc(Cl)c1O [Example 680] , IC50 = 0.59

Lab entry: T47D cells assay, compound O=C(c1cnc2ccc(-c3cc(F)c(O)c(Cl)c3)cc2c1Nc1cnn(C2CCNCC2)c1)C1CC1 [Example 520] , IC50 = 0.081

Lab entry: T47D cells assay, compound CCN(C)C[C@H]1CC[C@H](Nc2c(C(C)=O)cnc3ccc(-c4cc(F)c(O)c(Cl)c4)cc23)CC1 [Example 845] , IC50 = 0.063

Lab entry: T47D cells assay, compound NCCOc1ccc(Nc2c(C(=O)C3CC3)cnc3ccc(-c4cc(F)c(O)c(Cl)c4)cc23)cn1 [Example 724] , IC50 = 0.07

Lab entry: T47D cells assay, compound CCN(C)C[C@H]1CC[C@H](Nc2c(C(C)=O)cnc3ccc(-c4cc(Cl)c(O)c(OC)c4)cc23)CC1 [Example 816, hydrochloride] , IC50 = 0.28

Lab entry: T47D cells assay, compound N[C@H]1CCCN(c2ccc(Nc3c(C(=O)C4CC4)cnc4ccc(-c5cc(Cl)c(O)c(Cl)c5)cc34)cn2)C1 [Example 646] , IC50 = 0.02

Lab entry: T47D cells assay, compound CCC(=O)c1cnc2ccc(-c3cc(F)c(O)c(Cl)c3)cc2c1N[C@H]1CC[C@H](N(C)C)CC1 [Example 757] , IC50 = 0.064

====

# experimental system: MELK (Homo sapiens, UniProt Q14680)
# Sequence (Q14680 whole entry, looked up): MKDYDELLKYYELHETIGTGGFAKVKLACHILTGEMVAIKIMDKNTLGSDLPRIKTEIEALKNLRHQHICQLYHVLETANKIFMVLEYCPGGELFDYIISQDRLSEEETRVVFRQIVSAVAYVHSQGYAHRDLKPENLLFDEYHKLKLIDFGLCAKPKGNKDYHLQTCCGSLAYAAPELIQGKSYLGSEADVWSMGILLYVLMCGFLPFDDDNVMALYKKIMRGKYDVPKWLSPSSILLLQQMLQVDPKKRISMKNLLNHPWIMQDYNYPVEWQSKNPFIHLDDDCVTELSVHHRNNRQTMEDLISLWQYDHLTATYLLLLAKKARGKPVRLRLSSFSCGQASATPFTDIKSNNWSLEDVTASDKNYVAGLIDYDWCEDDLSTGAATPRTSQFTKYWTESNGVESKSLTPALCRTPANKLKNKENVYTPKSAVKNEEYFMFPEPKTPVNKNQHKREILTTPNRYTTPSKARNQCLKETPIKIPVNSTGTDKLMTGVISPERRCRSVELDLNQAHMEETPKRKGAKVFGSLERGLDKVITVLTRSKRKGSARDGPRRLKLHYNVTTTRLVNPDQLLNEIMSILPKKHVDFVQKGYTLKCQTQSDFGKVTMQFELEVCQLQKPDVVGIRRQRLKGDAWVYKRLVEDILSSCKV
# assay remarks: Kinase assay: MELK activity, phosphorylation of FITC-labeled histone H3 peptide measured by IMAP fluorescence polarization
# Format: biochemical
# study conditions: hydrochloride; read-out: IC50 (μM) (kinase assay)
Where a name gives a salt, the structure may show the parent alone.
For each record, write down the corresponding IC50.

Field IC50 (entry O=C(c1cnc2ccc(-c3cc(Cl)c(O)c(Cl)c3)cc2c1Nc1cccc(CCN2CCCC2)c1)C1CC1 [Example 798, hydrochloride] ) reads 0.0029 µM

Field IC50 (entry CC(=O)c1cnc2ccc(-c3cc(Cl)c(O)c(Cl)c3)cc2c1N[C@H]1CC[C@H](N(C)C)CC1 [Example 766, hydrochloride] ) reads 0.0017 µM

Field IC50 (entry CC(=O)c1cnc2ccc(-c3cc(Cl)c(O)c(Cl)c3)cc2c1Nc1cccc(CCN2CCCC2)c1 [Example 802, hydrochloride] ) reads 0.0021 µM

Field IC50 (entry COc1cc(-c2ccc3ncc(C(=O)C4CC4)c(N[C@H]4CC[C@H](CN)CC4)c3c2)cc(Cl)c1O [Example 494, hydrochloride] ) reads 0.0016 µM

Field IC50 (entry NC1CCN(c2ccc(Nc3c(C(=O)C4CC4)cnc4ccc(-c5cc(Cl)c(O)c(Cl)c5)cc34)cn2)CC1 [Example 549, hydrochloride] ) reads 0.0027 µM

Field IC50 (entry CN(CCO)C[C@H]1CC[C@H](Nc2c(C(=O)C3CC3)cnc3ccc(-c4cc(Cl)c(O)c(Cl)c4)cc23)CC1 [Example 635, hydrochloride] ) reads 0.00074 µM

Field IC50 (entry NCc1ccc(Nc2c(C(=O)C3CC3)cnc3ccc(-c4cc(F)c(O)c(Cl)c4)cc23)cc1 [Example 505, hydrochloride] ) reads 0.0027 µM

Field IC50 (entry NC1CCCN(c2ccc(Nc3c(C(=O)C4CC4)cnc4ccc(-c5cc(F)c(O)c(Cl)c5)cc34)cn2)C1 (stereo not shown) [Example 562, hydrochloride] ) reads 0.0017 µM

Field IC50 (entry O=C(c1cnc2ccc(-c3cc(F)c(O)c(Cl)c3)cc2c1Nc1cccc(CCN2CCCC2)c1)C1CC1 [Example 800, hydrochloride] ) reads 0.012 µM

Field IC50 (entry CN(C)CCc1ccc(Nc2c(C(=O)C3CC3)cnc3ccc(-c4cc(Cl)c(O)c(Cl)c4)cc23)cc1 [Example 614, hydrochloride] ) reads 0.0016 µM

Field IC50 (entry NC1CCN(c2ncc(Nc3c(C(=O)C4CC4)cnc4ccc(-c5cc(F)c(O)c(Cl)c5)cc34)cn2)C1 (stereo not shown) [Example 573, hydrochloride] ) reads 0.004 µM

Field IC50 (entry NC1CCN(c2ccc(Nc3c(C(=O)C4CC4)cnc4ccc(-c5cc(F)c(O)c(Cl)c5)cc34)cn2)C1 (stereo not shown) [Example 577, hydrochloride] ) reads 0.0037 µM

Field IC50 (entry CC(=O)c1cnc2ccc(-c3cc(Cl)c(O)c(Cl)c3)cc2c1N[C@H]1CC[C@H](CN2CCCC2)CC1 [Example 768, hydrochloride] ) reads 0.0015 µM
